Target: HCV polymerase (Hepatitis C virus genotype 1b, UniProt P26663)
Construct: 2.5 pmoles (0.15 μg) HCV polymerase protein in a final volume of 75 μL
Sequence (P26663 2420-3010): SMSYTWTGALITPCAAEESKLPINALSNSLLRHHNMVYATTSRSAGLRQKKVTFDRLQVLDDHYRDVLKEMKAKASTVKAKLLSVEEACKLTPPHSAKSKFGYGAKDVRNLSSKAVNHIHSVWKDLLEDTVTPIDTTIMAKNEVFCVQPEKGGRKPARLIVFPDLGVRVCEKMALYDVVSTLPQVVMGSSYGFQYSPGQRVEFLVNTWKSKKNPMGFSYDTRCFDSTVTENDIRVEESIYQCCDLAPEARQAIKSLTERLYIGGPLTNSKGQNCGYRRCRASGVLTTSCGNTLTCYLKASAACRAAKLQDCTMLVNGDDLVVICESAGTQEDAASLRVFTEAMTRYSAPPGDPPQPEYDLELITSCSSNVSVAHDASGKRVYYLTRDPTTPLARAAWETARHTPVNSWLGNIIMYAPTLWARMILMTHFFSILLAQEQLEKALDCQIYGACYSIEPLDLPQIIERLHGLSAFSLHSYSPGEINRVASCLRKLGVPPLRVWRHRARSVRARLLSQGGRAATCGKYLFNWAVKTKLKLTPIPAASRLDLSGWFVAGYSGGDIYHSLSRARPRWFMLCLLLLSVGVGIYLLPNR
Experiment: HCV polymerase primer/template-directed transcription assay (32P-GTP incorporation, filter binding)
Type: biochemical
Settings: recombinant HCV polymerase; 30 minutes at 30° C.; concentration giving 50% inhibition of polymerase-directed transcription; read-out: IC50
READOUT NAME: IC50 (µM)
Give bare numbers, in µM.

Worked examples, 3 compounds total:
-- ask Form field: reported IC50 of CCc1cc(CCC2(C3CCCC3)CC(=O)CC(=O)O2)cc(F)c1O (stereo not shown)
-- reply 0.35

-- ask Form field: reported IC50 of O=C1CC(=O)OC(CCc2cccc(Cc3nccs3)c2)(C2CCCC2)C1 (stereo not shown)
-- reply 21

-- ask Form field: reported IC50 of CC(C)Oc1ccc(CCC2(C3CCCC3)CC(O)=C(Cc3nc4cc(Cl)ccc4n3C(C)C)C(=O)O2)cc1F (stereo not shown)
-- reply 0.63

***
-- ask Form field: reported IC50 of COc1ccc(CCC2(C3CCCC3)CC(O)=C(Cc3nn(C)cc3Cl)C(=O)O2)cc1Cl (stereo not shown)
-- reply 0.22

----------
Biological target: HCV polymerase (Hepatitis C virus genotype 1b)
Construct: 2.5 pmoles (0.15 μg) HCV polymerase protein in a final volume of 75 μL
Assay: HCV polymerase primer/template-directed transcription assay (32P-GTP incorporation, filter binding)
Format: biochemical
Details: @ 50 uM compound; given where IC50 was impractical to calculate; read-out: percent inhibition
Field: inhibition at 50 µM. Provide a value for each of the compounds that follow.
Numbers only, in %.

Worked examples, 4 compounds total:
-- ask Form field: reported inhibition at 50 µM of CCOc1ccc2nc(SCC3(C4CCCC4)CC(=O)CC(=O)O3)sc2c1 (centres unmarked)
-- reply -2

-- ask Form field: reported inhibition at 50 µM of O=C(O)CC(O)(CCNC(=O)CCc1ccco1)C1CCCC1 (centres unmarked)
-- reply 7

-- ask Form field: reported inhibition at 50 µM of CCC1(C)CC(O)=C(Sc2nc3cc(Cl)ccc3n2C(C)C)C(=O)O1 (centres unmarked)
-- reply 11

-- ask Form field: reported inhibition at 50 µM of CC(C)c1ccc(SCC2(C3CCCC3)CC(=O)CC(=O)O2)cc1 (centres unmarked)
-- reply 44

// next entry
-- ask Form field: reported inhibition at 50 µM of COc1ccc(CCC2(C3CCCC3)CC(=O)CC(=O)O2)c(C(C)=O)c1 (centres unmarked)
-- reply 40

----------
Field: pIC50. Provide a value for each of the compounds that follow.
Molecular target: HCV polymerase (Hepatitis C virus genotype 1b)
Construct: 2.5 pmoles (0.15 μg) HCV polymerase protein in a final volume of 75 μL
Test: HCV polymerase primer/template-directed transcription assay (32P-GTP incorporation, filter binding)
Assay type: biochemical
Details: recombinant HCV polymerase; 30 minutes at 30° C.; concentration giving 50% inhibition of polymerase-directed transcription; read-out: IC50
Description: The compounds described herein were tested for activity with HCV polymerase. […] The filters were counted in a Packard Tri-Lux Microbeta scintillation counter (Packard Bioscience, Meriden, Conn.). […]
Numbers only, as −log10 of the molar value.

Worked examples, 5 compounds total:
-- ask Form field: reported pIC50 of COc1ccc(CCC2(C3CCCC3)CC(O)=C(Sc3ncnc4ccccc34)C(=O)O2)cc1Cl (stereo not shown)
-- reply 6.70

-- ask Form field: reported pIC50 of CCc1cc(CCC2(C3CCCC3)CC(O)=C(Cc3nc4nc(C)cc(C)n4n3)C(=O)O2)cc(F)c1O (stereo not shown)
-- reply 7.92

-- ask Form field: reported pIC50 of CCc1cnc2nc(CC3=C(O)CC(CCc4cc(F)c(C(C)(C)C#N)c(F)c4)(C4CCCC4)OC3=O)nn2c1 (stereo not shown)
-- reply 8.00

-- ask Form field: reported pIC50 of Cc1cnc2nc(CC3C(=O)CC(CCc4ccc(C(C)(C)C#N)c(F)c4)(C4CCCC4)OC3=O)nn2c1 (racemic) [A(108)]
-- reply 8.52

-- ask Form field: reported pIC50 of Cc1cc(C)n2nc(CC3=C(O)CC(CCc4ccc(OC(C)C)c(F)c4)(C4CCCC4)OC3=O)nc2n1 (single isomer, unassigned) [J(4)]
-- reply 7.72

List pIC50 for every entry below, keeping the order given.
1. COc1ccc(CCC2(C3CCCC3)CC(O)=C(Sc3nnc(-c4ccncc4)o3)C(=O)O2)cc1Cl (stereo not shown) [C(51)]
2. Cc1cnc2nc(CC3=C(O)CC(CCc4ccc(C(C)(C)CO)c(F)c4)(C4CCCC4)OC3=O)nn2c1 (stereo not shown)
3. COc1cc(OC)c(CCC2(C3CCCC3)CC(O)=C(Sc3nnc(-c4ccc(O)cc4)[nH]3)C(=O)O2)cc1Cl (stereo not shown)
4. CCc1cc(CCC2(C3CCCC3)CC(O)=C(Cc3nc4ncc(C)cn4n3)C(=O)O2)c2c(c1O)CCO2 (stereo not shown)

-- reply
1: 6.59; 2: 7.59; 3: 7.85; 4: 8.40

List pIC50 for every entry below, keeping the order given.
1. Cc1cnc2nc(CC3=C(O)CC(CCc4ccc(C(C)(C)C#N)c(Cl)c4)(C4CCCC4)OC3=O)nn2c1 (racemic) [A(202)]
2. CC(C)Oc1ccc(CCC2(C3CCCC3)CC(O)=C(Cc3nc4ccccc4n3C)C(=O)O2)cc1F (stereo not shown)
3. O=C1CC(=O)OC(CCc2ccc(-c3nnc(-c4ccccc4)o3)cc2)(C2CCCC2)C1 (stereo not shown)

-- reply
1. 7.92
2. 6.05
3. 5.23

List pIC50 for every entry below, keeping the order given.
1. CC(C)n1c(SC2=C(O)CC(CCCC3CCCCC3)(C3CCCC3)OC2=O)nc2cc(Cl)ccc21 (stereo not shown)
2. O=C1OC(CCC2=CCCCC2)(C2CCCC2)CC(O)=C1Sc1nnc(-c2ccncc2)[nH]1 (stereo not shown)
3. COc1ccc(CCC2(C3CCCC3)CC(=O)CC(=O)O2)cc1C1CC1 (stereo not shown)
4. Cc1cc(C)n2nc(CC3=C(O)CC(CCc4ccc(F)c(Cl)c4)(C4CCCC4)OC3=O)nc2n1 (stereo not shown)

-- reply
[6.29, 5.74, 5.89, 7.22]
